All figures here come from the supplement of paper PMC12042874.

test: amyloid nucleation score (Sup35N fusion, yeast selection) (log enrichment); library NNK2; higher = more nucleation; inactive = no reads after selection;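 further: zero at mode of non-aggregating sequences after 7 days selection at 30°C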
Would you mind labelling by amyloid nucleation score? At or over 0.3 is 1, under is 0.

Worked cases, answers included:
INSERT INTO assay_data (substance, assigned_class) VALUES
  ('QSYVLMC', 0),
  ('SNRHSVRKAAWIWGRDFLRA', 1),
  ('RVMRVISRPEELAWVA', 1),
  ('KSICARVFTIQMRNVSVQSS', 0),
  ('YYSCPASLLFNTGLPVKYSW', 0),
  ('RNLGLMVTILSAELFRRCLW', 0),
  ('LWSSKYYKPPYWDNVVCSII', 0),
  ('CIGLHC', 0),
  ('CCQFLVTWDVAYTSMFGSTL', 1),
  ('ANYMRYYSGLICFTESRYMS', 1);

[Q] Please indicate if the recorded amyloid nucleation score for SEWSRDRKRVKVSHFA meets or exceeds 0.3.
[A] 1

[Q] Please indicate if the recorded amyloid nucleation score for DMSFQDIIMP meets or exceeds 0.3.
[A] 0

---

Readings of amyloid nucleation score for the listed substances
test: amyloid nucleation score (Sup35N fusion, yeast selection) (log enrichment); library NNK2; higher = more nucleation; inactive = no reads after selection
Simply state the number, no unit and no words.

Worked cases, answers included:
INSERT INTO measurements (substance, quantitative_result) VALUES
  ('FRYERTGRAMSTASVVTTTV', 1.04),
  ('SIGLLTGKWLPSLMVLYLLV', 1.29),
  ('RPGMARVFNAA', 0.673);

Continue with the substance presented below.
[Q] Please report the recorded amyloid nucleation score for LMMTSVYLKLGWSFFIFRHR .
[A] -0.238

---

test: amyloid nucleation score (Sup35N fusion, yeast selection) (log enrichment); library NNK3; higher = more nucleation; inactive = no reads after selection
observable: amyloid nucleation score

Worked cases, answers included:
INSERT INTO measurements (substance, observable, result) VALUES
  ('LDWLICSWGN', 'amyloid nucleation score', 'inactive'),
  ('TRRATGYFHFS', 'amyloid nucleation score', 'inactive'),
  ('KLMLHNEYMPGVQLLLNQYK', 'amyloid nucleation score', 0.436),
  ('ARSDVSCPWSGRMATVCLTV', 'amyloid nucleation score', 'inactive'),
  ('IYPMLW', 'amyloid nucleation score', -0.428),
  ('LVKRCVVGFTHFPTIYTCIQ', 'amyloid nucleation score', 'inactive'),
  ('WNLLWLLFFLCLCHCGIMWK', 'amyloid nucleation score', 'inactive'),
  ('DRYFLVDAKMFTGRTYLILG', 'amyloid nucleation score', -0.416);

Continue with the substance presented below.
[Q] Please report the recorded amyloid nucleation score for GYVSALMMIFYYHLWKKGPC .
[A] inactive

---

test: amyloid nucleation score (Sup35N fusion, yeast selection) (log enrichment); library NNK1; higher = more nucleation; inactive = no reads after selection
// map amyloid nucleation score to label using low (below -0.1), intermediate (-0.1 to below 0.6), high (0.6 or more)

Worked cases, answers included:
INSERT INTO assay_data (ordered_residues, assigned_class) VALUES
  ('CVNKPLNGHLANMSWRGY', 'high'),
  ('CLFKGLCSGWLREYALPYFC', 'low'),
  ('VSDFGLGHGKQWRCRRQISL', 'high'),
  ('RGFMWLACITCFYAVCYNVS', 'intermediate'),
  ('LSIWFFVYVLVG', 'intermediate');

[Q] In plain terms, what class is ILSPRVPINRICAVEQRRGI ?
[A] low

[Q] In plain terms, what class is SVSLFMITVFNVTC ?
[A] high

[Q] In plain terms, what class is CGEIENRMVTEAVTALLLYD ?
[A] intermediate

[Q] In plain terms, what class is MELTIAKSEMHVFKGGCVQL ?
[A] low

[Q] In plain terms, what class is VSCQQTFASLFFGILAGKSI ?
[A] intermediate

[Q] In plain terms, what class is LTMGRKMVPYHLVSAMMGTV ?
[A] low

---

test: amyloid nucleation score (Sup35N fusion, yeast selection) (log enrichment); library NNK2; higher = more nucleation; inactive = no reads after selection
Would you mind labelling by amyloid nucleation score? At or over -0.5 is Y, under is N.

Worked cases, answers included:
INSERT INTO assay_data (substance, assigned_class) VALUES
  ('IRFDFSC', 'Y'),
  ('GYGVAWLYGISDSVRLRAPY', 'Y'),
  ('FYCIARERLRMVNFT', 'N'),
  ('IRMEFCDAMTICLLKQR', 'Y'),
  ('FRALFSNVVRVDMAMAAGFL', 'N');

[Q] Please indicate if the recorded amyloid nucleation score for KVFLFIFGLLTESPGCDQSP meets or exceeds -0.5.
[A] N

---

test: amyloid nucleation score (Sup35N fusion, yeast selection) (log enrichment); library NNK2; higher = more nucleation; inactive = no reads after selection
observable: amyloid nucleation score
Simply state the number, no unit and no words.

INSERT INTO measurements (substance, observable, quantitative_result) VALUES
  ('VACCFNSQYSEAI', 'amyloid nucleation score', 3.99),
  ('VLNGGRGVIRLYRVFAGKRF', 'amyloid nucleation score', -1.06),
  ('LQVLARVDRLSHPGR', 'amyloid nucleation score', 0.636),
  ('RSLCDL', 'amyloid nucleation score', -0.755);

[Q] Please report the recorded amyloid nucleation score for MTTYAVLGVPI .
[A] -0.421

[Q] Please report the recorded amyloid nucleation score for RYPIVRTDMYIIVKFI .
[A] 0.509

[Q] Please report the recorded amyloid nucleation score for LDWAWACSWVVA .
[A] 0.389

---

Readings of amyloid nucleation score for the listed substances
test: amyloid nucleation score (Sup35N fusion, yeast selection) (log enrichment); library NNK2; higher = more nucleation; inactive = no reads after selection
Simply state the number, no unit and no words.

Worked cases, answers included:
INSERT INTO measurements (substance, quantitative_result) VALUES
  ('YFLGAFTYVFCACHSFCRYW', 1.86),
  ('KSSSAVIW', -0.045),
  ('EFNYHVQRSLFSR', 0.285),
  ('VWLFNLKGPLTRNLLHNLFA', -0.678),
  ('GTIFMRALKNAVYASSRALI', -0.247);

[Q] Please report the recorded amyloid nucleation score for GFNGRALKLERARDLVCGRM .
[A] 0.386

[Q] Please report the recorded amyloid nucleation score for LSFGIVKLVMRAFTKKVTKG .
[A] 0.388

[Q] Please report the recorded amyloid nucleation score for YQNIVIRLLVLCYNVTDGLV .
[A] 3.02

---

test: amyloid nucleation score (Sup35N fusion, yeast selection) (log enrichment); library NNK2; higher = more nucleation; inactive = no reads after selection
Readings of amyloid nucleation score for the listed substances
Simply state the number, no unit and no words.

INSERT INTO measurements (substance, quantitative_result) VALUES
  ('FLVFYLVCGSGLYMNNGQFF', -0.908),
  ('QDSFRGLGYFWGPQHETVVM', -1.23),
  ('VVWCGTYVYHDV', 8.88),
  ('KVRDCIMPRCRGRVCICNYG', -0.29);

[Q] Please report the recorded amyloid nucleation score for FYGSEVIMSTDVQGNGEYGA .
[A] -0.791

[Q] Please report the recorded amyloid nucleation score for TPLYFRYVTIHYRGHVKVDV .
[A] 0.688

[Q] Please report the recorded amyloid nucleation score for WRGFTECRVKLRYSGSGQFC .
[A] 2.92

[Q] Please report the recorded amyloid nucleation score for VTWGIIYRLSDG .
[A] 3.58

[Q] Please report the recorded amyloid nucleation score for FFYSGRGYTDKWHMGSLPRC .
[A] -0.964

[Q] Please report the recorded amyloid nucleation score for CDMSHGTFFTIFCRLTNA .
[A] 4.81

[Q] Please report the recorded amyloid nucleation score for DVKDDKLFNCLDVVMWVGNL .
[A] -0.058

[Q] Please report the recorded amyloid nucleation score for QVLLFQWLSGDYQMIKMMRW .
[A] -0.207

[Q] Please report the recorded amyloid nucleation score for ACQHSG .
[A] 4.36

[Q] Please report the recorded amyloid nucleation score for SLDETSPLVWEWEICSDLYN .
[A] 0.68

[Q] Please report the recorded amyloid nucleation score for FEGWVWFIPEASEHSYEHVN .
[A] -0.002

[Q] Please report the recorded amyloid nucleation score for YIIRRYWARPSYVNSFM .
[A] -0.31

---

test: amyloid nucleation score (Sup35N fusion, yeast selection) (log enrichment); library NNK3; higher = more nucleation; inactive = no reads after selection
observable: amyloid nucleation score

Worked cases, answers included:
INSERT INTO assay_data (ordered_residues, result) VALUES
  ('FCSPSFYFGADGDTT', 1.99),
  ('WWHVIMYTGHKCNLSCDSVG', 'inactive'),
  ('LVSVGSIVTSLEFNTGCLWA', 'inactive'),
  ('VSHFSSRHKRTEVRSGSPQT', 'inactive'),
  ('GGMHRAYMESVSDVYLRKWW', 0.308),
  ('LDRVSTVGSKNLFQRCCKIS', 'inactive'),
  ('PGSDWDMLIMKGMKKRYLDY', 'inactive'),
  ('SYGTSGCRRLVLWTYDSKFI', 'inactive'),
  ('SGKSFNVTGLPCMAWCRATD', 'inactive'),
  ('YRNLWNIHTVISIASL', 'inactive');

[Q] Please report the recorded amyloid nucleation score for SIGVRTRLKLCC .
[A] inactive

[Q] Please report the recorded amyloid nucleation score for VTGEYLRMAISGCRG .
[A] inactive

[Q] Please report the recorded amyloid nucleation score for GVNDRGNKRYAPYKTWLRLE .
[A] inactive

[Q] Please report the recorded amyloid nucleation score for MNRMCVLLVNFCVDTD .
[A] 1.9

[Q] Please report the recorded amyloid nucleation score for SIEMRLCQDWTQLESLT .
[A] -0.252

[Q] Please report the recorded amyloid nucleation score for FNVTGFSIIGKFIHDWFFLL .
[A] inactive

[Q] Please report the recorded amyloid nucleation score for RTPPLRTQLESKSIFKEMAR .
[A] inactive
